Hey, just so you know, these numbers are from patent US20260265238A1.

- Experimental Target: SMARCA4-HiBiT HeLa cells (protein which is expressed from the SMARCA4 gene) (Homo sapiens, UniProt P51532)
- Construct: protein which is expressed from the SMARCA2 and SMARCA4 genes; host or cells: HeLa (SMARCA4-HiBiT engineered line)
- Sequence (P51532 whole entry): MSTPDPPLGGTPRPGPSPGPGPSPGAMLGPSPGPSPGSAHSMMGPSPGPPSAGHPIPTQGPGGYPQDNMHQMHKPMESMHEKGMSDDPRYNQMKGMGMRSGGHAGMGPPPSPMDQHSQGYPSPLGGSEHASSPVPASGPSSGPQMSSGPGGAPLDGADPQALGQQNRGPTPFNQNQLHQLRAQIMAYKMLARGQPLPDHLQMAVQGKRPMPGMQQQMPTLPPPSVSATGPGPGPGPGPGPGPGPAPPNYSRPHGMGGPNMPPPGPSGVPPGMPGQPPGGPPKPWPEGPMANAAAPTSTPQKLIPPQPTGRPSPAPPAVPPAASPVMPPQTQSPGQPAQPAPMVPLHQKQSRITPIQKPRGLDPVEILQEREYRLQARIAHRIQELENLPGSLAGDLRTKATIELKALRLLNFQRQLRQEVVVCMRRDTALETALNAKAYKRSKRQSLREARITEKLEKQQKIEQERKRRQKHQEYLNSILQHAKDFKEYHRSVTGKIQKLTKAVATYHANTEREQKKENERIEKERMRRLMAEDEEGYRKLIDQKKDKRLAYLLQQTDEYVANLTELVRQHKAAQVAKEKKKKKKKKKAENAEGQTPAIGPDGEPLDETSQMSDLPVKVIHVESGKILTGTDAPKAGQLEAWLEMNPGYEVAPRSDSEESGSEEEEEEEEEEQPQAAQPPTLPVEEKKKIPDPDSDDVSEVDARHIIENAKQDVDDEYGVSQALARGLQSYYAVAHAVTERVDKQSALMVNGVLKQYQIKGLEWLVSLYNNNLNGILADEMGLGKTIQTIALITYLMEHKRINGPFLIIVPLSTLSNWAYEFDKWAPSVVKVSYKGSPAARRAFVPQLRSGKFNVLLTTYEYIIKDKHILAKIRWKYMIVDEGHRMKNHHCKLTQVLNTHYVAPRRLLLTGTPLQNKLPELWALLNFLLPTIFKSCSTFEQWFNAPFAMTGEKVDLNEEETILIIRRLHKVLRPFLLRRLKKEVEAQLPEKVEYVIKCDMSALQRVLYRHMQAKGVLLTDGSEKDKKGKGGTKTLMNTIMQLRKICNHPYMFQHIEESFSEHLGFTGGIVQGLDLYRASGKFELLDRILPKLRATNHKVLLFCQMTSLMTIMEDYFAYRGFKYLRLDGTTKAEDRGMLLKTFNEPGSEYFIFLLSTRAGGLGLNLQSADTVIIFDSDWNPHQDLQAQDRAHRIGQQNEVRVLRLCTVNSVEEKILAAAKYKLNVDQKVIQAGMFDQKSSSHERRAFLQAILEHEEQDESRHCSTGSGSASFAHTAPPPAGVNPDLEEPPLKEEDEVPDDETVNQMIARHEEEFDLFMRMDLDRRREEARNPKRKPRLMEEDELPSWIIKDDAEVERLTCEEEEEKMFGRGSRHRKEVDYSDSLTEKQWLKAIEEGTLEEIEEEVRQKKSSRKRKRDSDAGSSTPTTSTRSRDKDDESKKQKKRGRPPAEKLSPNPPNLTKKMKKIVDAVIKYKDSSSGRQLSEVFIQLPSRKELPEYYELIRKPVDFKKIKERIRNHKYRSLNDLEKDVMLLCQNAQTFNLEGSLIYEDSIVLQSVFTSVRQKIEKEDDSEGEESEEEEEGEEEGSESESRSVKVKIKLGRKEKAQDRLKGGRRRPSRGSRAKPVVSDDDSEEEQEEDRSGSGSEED
- Test Summary: SMARCA4 degradation assay (HiBiT-fusion HeLa cell line, 24 h, luminescence)
- Format: cell-based
- Condition Set: @ 1 μM
What inhibition at 1 µM was measured for each of the following?

compound CC1(F)CCN(CC#Cc2nccc(N3CC4CCC(C3)N4c3cc(-c4ccccc4O)nnc3N)n2)C1 (stereo not drawn) , inhibition at 1 µM observed: < 30%

Reported inhibition at 1 µM of C[C@@H]1CCN(c2cc(-c3ccccc3O)nnc2N)CCN1c1ccnc(/C=C/CN2CCOCC2)n1 : < 30%

What the record says about Nc1nnc(-c2ccccc2O)cc1N1CCN(c2ccnc(C#CCNC(=O)c3cc4ccc(F)cc4o3)n2)CC1 : inhibition at 1 µM is 30 to 70%

Entry Cc1c(C(=O)NCC#Cc2nccc(N3CCN(c4cc(-c5ccccc5O)nnc4N)CC3)n2)oc2ccccc12 ; inhibition at 1 µM = 30 to 70%

According to the records, this compound Cn1ccc(C(=O)NCC#Cc2nccc(N3CCN(c4cc(-c5ccccc5O)nnc4N)CC3)n2)n1 displays inhibition at 1 µM of 30 to 70%

// inhibition at 1 µM value for CNCC#Cc1nccc(N2CCN(c3cc(-c4ccccc4O)nnc3N)[C@@H](C)C2)n1 : < 30%

The compound listed as C[C@@H]1CCN(c2cc(-c3ccccc3O)nnc2N)CCN1c1ccnc(C#CC2CN(C)C2)n1 has a reported inhibition at 1 µM of 30 to 70%

response.value for Nc1nnc(-c2ccccc2O)cc1N1CCCN(c2ccnc(C#CCN[C@@H]3CCOC3)n2)CC1 (field: inhibition at 1 µM) = 30 to 70%

Per the record, C[C@@H]1CCN(c2cc(-c3ccccc3O)nnc2N)CCN1c1ccnc(C#CCN2C3COCC2C3)n1 has inhibition at 1 µM of 30 to 70%

// sample Nc1nnc(-c2ccccc2O)cc1N1CCC2CCN(c3ccnc(C#CCNC(=O)c4cc5ncccn5n4)n3)C2C1 (stereo not drawn) , its inhibition at 1 µM was 30 to 70%

COC(=O)NCC#Cc1nccc(N2CCCN(c3cc(-c4ccccc4O)nnc3N)CC2)n1 has a reported inhibition at 1 µM of > 70%

Entry under test: C[C@@H]1CCN(c2cc(-c3ccccc3O)nnc2N)CCN1c1ccnc(C#CC2CC(F)(F)C2)n1 . Its inhibition at 1 µM was > 70%

The compound listed as NCC#Cc1nccc(N2CC3CN(c4cc(-c5ccccc5O)nnc4N)C3C2)n1 (stereo not drawn) shows inhibition at 1 µM equal to < 30%

Measured inhibition at 1 µM, CN(C)CC#Cc1nccc(N2CCCN(c3cc(-c4ccccc4O)nnc3N)CC2)n1 : 30 to 70%

// inhibition at 1 µM value for Nc1nnc(-c2ccccc2O)cc1N1CCN(c2ccnc(C#CCNC(=O)c3cnc4ccccn34)n2)CC1 : 30 to 70%
